- Read-out: Transforming growth factor beta 1 (TGFb1), TGFB1 (gene 7040)
- assay_overview: BSK_KF3CT_TGFb1: BioMAP Diversity Plus: KF3CT Assay for Transforming growth factor beta 1 (TGFb1) Biomarker Activity (AID 2283072)
- stated_conditions: primary human keratinocytes with fibroblasts; actives raise or lower the signal
Active and inactive are the calls of the source. Rule for the calls: active = hit-call score of the fitted dose curve at least 0.9, where 1 is the maximum; inactive = score below 0.9.
Would you mind answering with one of these outcomes? y (active), n (inactive)

Tell me the assay call for `C[C@@H]1CCN(C(=O)[C@H](CCCN=C(N)N)NS(=O)(=O)c2cccc3c2NC[C@H](C)C3)[C@@H](C(=O)O)C1` please.
n

Tell me the assay call for `Clc1cc(Cl)c(-c2c(Cl)c(Cl)cc(Cl)c2Cl)cc1Cl` please.
y

Tell me the assay call for `CN(C)C(=S)SC(=S)N(C)C` please.
n

Tell me the assay call for `CC(C)(C)CC(C)(C)c1ccc(OCCOCC[N+](C)(C)Cc2ccccc2)cc1` please.
y
